Some compounds, each annotated with its measured Peak-to-peak separation ΔEp.
protocol: Cyclic voltammetry / linear sweep voltammetry, electrochemical parameters
Format: physicochemical
recorded.conditions: pH 14 (KOH 1 M), 100 mV/s, third cycle
reported.endpoint: Peak-to-peak separation ΔEp

{"compound": "O=C(O)CCCOc1ccc(OCCCC(=O)O)c2c1C(=O)c1ccccc1C2=O [Compound D3CH]", "result": "46 mV"}
{"compound": "O=C(O)CCCOc1ccc(O)c2c1C(=O)c1ccccc1C2=O [Compound M3CH]", "result": "31 mV"}
{"compound": "O=C(O)CCCCOc1ccc(OCCCCC(=O)O)c2c1C(=O)c1ccccc1C2=O [Compound D4CH]", "result": "32 mV"}
{"compound": "O=C1c2ccccc2C(=O)c2c(OCCCCS(=O)(=O)O)ccc(OCCCCS(=O)(=O)O)c21 [Compound D4SH]", "result": "32 mV"}

Taken from patent US12438175B2.
